# protocol-details: Solubility in deionized water
# Type: physicochemical
# test-settings: deionized water at 20° C.
experimental-endpoint: Solubility (mg/mL)
Field: numeric (mg/mL). Do not append units.

What does the data say about its Solubility? Entry: CCCCCCCCCCC(C(=O)c1ccc(C)o1)S(=O)(=O)[O-].[Na+] (centres unmarked) 800

One more compound: CCCCCCCCCCC(C(=O)c1cc(S(=O)(=O)O)c(C)o1)S(=O)(=O)O.N.N (centres unmarked) 500

Please give the result for CCCCCCCCCCCC(=O)c1cc(S(=O)(=O)[O-])c(C)o1.[Na+] too. 800

Try the compound CCCCCCCCCCCCC(C(=O)c1cc(S(=O)(=O)[O-])c(C)o1)S(=O)(=O)[O-].[Na+].[Na+] (centres unmarked) 600

// next record CCCCCCCCCCC(C(=O)c1cc(S(=O)(=O)[O-])c(C)o1)S(=O)(=O)[O-].[Na+].[Na+] (centres unmarked) 900
